Assay system: Avi-KRAS G12C (1-169) GppNHp/RAF1 RBD-3×FLAG (52-151) (Homo sapiens, UniProt P01116, G12C)
Construct: Avi-KRAS G12C (1-169) GppNHp/RAF1 RBD-3×FLAG (52-151)
Sequence (P01116 1-169 isoform P01116-2 G12C limits assumed): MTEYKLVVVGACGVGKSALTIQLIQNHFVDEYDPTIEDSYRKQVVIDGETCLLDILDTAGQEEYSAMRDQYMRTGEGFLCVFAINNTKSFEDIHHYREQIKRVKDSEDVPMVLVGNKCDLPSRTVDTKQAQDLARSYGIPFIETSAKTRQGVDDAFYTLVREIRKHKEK
Assay overview: Raf1 RBD-KRAS G12C-GppNHp disruption (protein:protein interaction HTRF assay)
pIC50: −log10 of the molar value.
Metric name: pIC50

// known answers, use as guide
Molecule	Assay system	pIC50
C=CC(=O)N1CC[C@@H](Oc2nc(OC[C@@]34CCCN3C[C@H](F)C4)nc3cc(-c4ccc(F)c5sc(N)c(C#N)c45)c(C(F)(F)F)cc23)[C@H]1C [Compound 98]	Avi-KRAS G12C (1-169) GppNHp/RAF1 RBD-3×FLAG (52-151) (Homo sapiens, UniProt P01116, G12C)	≥ 6.30
C=CC(=O)N1C[C@@H](F)[C@@H](Oc2nc(OC[C@@]34CCCN3C[C@H](F)C4)nc3c(F)c(-c4ccc(F)c5sc(N)nc45)ccc23)C1 [Compound 82]	Avi-KRAS G12C (1-169) GppNHp/RAF1 RBD-3×FLAG (52-151) (Homo sapiens, UniProt P01116, G12C)	≥ 6.30
C=CC(=O)N1CCC[C@@H](Oc2nc(OC[C@@H]3C[C@@H](F)CN3C)nc3c(F)c(-c4ccc(F)c5sc(N)nc45)c(C(F)(F)F)cc23)C1 (atropisomer, axis not shown) [Compound 20]	Avi-KRAS G12C (1-169) GppNHp/RAF1 RBD-3×FLAG (52-151) (Homo sapiens, UniProt P01116, G12C)	4.70 to 5.30
C=CC(=O)N1CC[C@@H](Oc2nc(OC[C@@]34CCCN3C[C@H](F)C4)nc3c(Cl)c(-c4ccc(F)c5sc(N)c(C#N)c45)ncc23)[C@H]1COC [Compound 110]	Avi-KRAS G12C (1-169) GppNHp/RAF1 RBD-3×FLAG (52-151) (Homo sapiens, UniProt P01116, G12C)	≥ 6.30
C=CC(=O)N1CC[C@@H](Oc2nc(OC[C@@]34CCCN3C[C@H](F)C4)nc3c(Cl)c(-c4ccc(F)c5sc(N)c(C#N)c45)c(C#N)cc23)[C@H]1C [Compound 105]	Avi-KRAS G12C (1-169) GppNHp/RAF1 RBD-3×FLAG (52-151) (Homo sapiens, UniProt P01116, G12C)	≥ 6.30
C=CC(=O)N1CC(Oc2nc(OC[C@@]34CCCN3C[C@H](F)C4)nc3c(F)c(-c4ccc(F)c5sc(N)nc45)c(C(F)(F)F)cc23)[C@@H](C)C1 (stereo partly drawn) [Compound 34]	Avi-KRAS G12C (1-169) GppNHp/RAF1 RBD-3×FLAG (52-151) (Homo sapiens, UniProt P01116, G12C)	≥ 6.30
C=CC(=O)N1CCC(Oc2nc(OC[C@@]34CCCN3C[C@H](F)C4)nc3c(F)c(-c4ccc(F)c5sc(N)c(C#N)c45)c(C(F)(F)F)cc23)C1(C)C (stereo partly drawn) [Compound 61]	Avi-KRAS G12C (1-169) GppNHp/RAF1 RBD-3×FLAG (52-151) (Homo sapiens, UniProt P01116, G12C)	≥ 6.30
C=CC(=O)N1CC[C@@H](Oc2nc(OC[C@@]34CCCN3C[C@H](F)C4)nc3cc(-c4ccc(F)c5sc(N)c(C#N)c45)c(C#N)cc23)[C@@H]1C [Compound 120]	Avi-KRAS G12C (1-169) GppNHp/RAF1 RBD-3×FLAG (52-151) (Homo sapiens, UniProt P01116, G12C)	4.70 to 5.30

Qu. What does the record list as pIC50 for C=CC(=O)N1C[C@@H](F)[C@@H](Oc2nc(OC[C@@]34CCCN3C[C@H](F)C4)nc3c(F)c(-c4ccc(F)c5sc(N)nc45)c(C(F)(F)F)cc23)C1 [Compound 40] ?
Ans. ≥ 6.30
